# Test system: NKL (IL-2 2.5 ng/mL)
# TEST_SUMMARY: percent inhibition of viability; higher = more inhibition;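 note: normalised to DMSO-only wells as negative and benzethonium chloride as positive control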
# APPLIED_CONDITIONS: 72 h; 10000 nM
Doc: threshold 70% (exclusive). Items with percent inhibition of viability beneath it return 1; others return 0.

MOLECULE	CATEGORY
C#Cc1cccc(Nc2ncnc3cc(OC)c(OCCCCCCC(=O)NO)cc23)c1 [CUDC-101] (max concentration tested 10000 nM)	0
O=C(c1ccc(OCCN2CCCCC2)cc1)c1c(-c2ccc(O)cc2)sc2cc(O)ccc12 [Raloxifene] (max concentration tested 10000 nM)	1
COc1cccc2cc(-c3nc([C@H]4CC[C@H](C(=O)O)CC4)n4ncnc(N)c34)[nH]c12 [OSI-027] (max concentration tested 10000 nM)	1
COc1cc(OC2CCN(C)CC2)ccc1Nc1ncc2c(n1)n(C1CCCC1)c(=O)n2C [AZ 3146] (max concentration tested 10000 nM)	0
O=c1[nH]cc(F)c(=O)[nH]1 [Fluorouracil] (max concentration tested 10000 nM)	0
Cc1ccc(-c2cc(C(F)(F)F)nn2-c2ccc(S(N)(=O)=O)cc2)cc1 [Celecoxib] (max concentration tested 10000 nM)	1
COc1cc2nccc(Oc3ccc(NC(=O)Nc4cc(C)on4)c(Cl)c3)c2cc1OC [Tivozanib] (max concentration tested 10000 nM)	1
CNC(=O)c1ccc(N2C(=S)N(c3ccc(C#N)c(C(F)(F)F)c3)C(=O)C23CCC3)cc1F [RD162] (max concentration tested 10000 nM)	1
O=C(O)CCCCC(CCSCc1ccccc1)SCc1ccccc1 (stereo not drawn) [CPI-613] (max concentration tested 10000 nM)	1
N#Cc1ccc(C(c2ccc(C#N)cc2)n2cncn2)cc1 [Letrozole] (max concentration tested 10000 nM)	1
Nc1ccccc1NC(=O)c1ccc(CNC(=O)OCc2cccnc2)cc1 [Entinostat] (max concentration tested 10000 nM)	0
Nc1nccc(-c2c(-c3ccc(F)cc3)ncn2C2CCCCC2)n1 (max concentration tested 10000 nM)	1
N#CC[C@H](C1CCCC1)n1cc(-c2ncnc3[nH]ccc23)cn1 [Ruxolitinib] (max concentration tested 10000 nM)	0

----------
Listing of recorded percent inhibition of viability by entry.
# Test system: DERL-7 (IL-2 2.5 ng/mL)
# TEST_SUMMARY: percent inhibition of viability; higher = more inhibition
# APPLIED_CONDITIONS: 72 h; 100 nM

COMPOUND	percent inhibition of viability [%]
Cc1sc2c(c1C)C(c1ccc(Cl)cc1)=N[C@@H](CC(=O)OC(C)(C)C)c1nnc(C)n1-2 [(+)JQ1] (max concentration tested 10000 nM)	54.6
C=CCc1cccc(/C=N/NC(=O)CN2CCN(Cc3ccccc3)CC2)c1O [PAC-1] (max concentration tested 10000 nM)	-2.94
CC(C)(C)c1cc(NC(=O)Nc2ccc(-c3cn4c(n3)sc3cc(OCCN5CCOCC5)ccc34)cc2)no1 [Quizartinib] (max concentration tested 1000 nM)	4.17
C[C@]1(O)C[C@@H](c2nc(-c3ccc4ccc(-c5ccccc5)nc4c3)c3c(N)nccn32)C1 [Linsitinib] (max concentration tested 10000 nM)	-0.65
CNC(=O)c1cccc(-c2ccc3c(N4CCOC[C@@H]4C)nc(N4CCOC[C@@H]4C)nc3n2)c1 [AZD2014] (max concentration tested 10000 nM)	37.5
O=C(/C=C/c1cccc(S(=O)(=O)Nc2ccccc2)c1)NO [Belinostat] (max concentration tested 10000 nM)	23.1
